B1: HDV Ribozyme (parent)
chain: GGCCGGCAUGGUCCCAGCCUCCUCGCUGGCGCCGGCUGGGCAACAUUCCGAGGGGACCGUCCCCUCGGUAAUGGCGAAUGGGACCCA

# Variants of: B1
# EXPERIMENT SUMMARY: self-cleavage, relative activity (ratio to wild type); higher = more cleavage; co-transcriptional
Would you please tag the item Condition met when its self-cleavage is 0.1 or above, and Condition not met when it is below?

- GGCCGGCAUGCUCCCAGCCUCCUCGCUGGCGCCGGCUGGGCAAGAUUCCGAGGGGACCGUCCCCUCGGUAAUGGCGAAUGGGACCCA [G11C C44G]: Condition not met
- GGCCGGCAUGGUCCCAGCCUCCUCGCUGGCGCCGGCUGGGCAACAUUCCGAGGUGACCGUCCCCUCGGUAAUGGCUAAUGGGACCCA [G54U G76U]: Condition met
- AGCCGGCAUGGUCCCAGCCUCCUCGAUGGCGCCGGCUGGGCAACAUUCCGAGGGGACCGUCCCCUCGGUAAUGGCGAAUGGGACCCA [G1A C26A]: Condition met
- GGCCGGCAUGGUCCCAGGCUCCUCGCUGGCGCCGGCUGGGCAACAUUCCGAGGGGACAGUCCCCUCGGUAAUGGCGAAUGGGACCCA [C18G C58A]: Condition not met
- GGCCGGCAUGGUCCCAGCCUCCUCGCUGUCGCCGGCUGGGCAACAUUCCGAGGGGACCGUCCCCUCUGUAAUGGCGAAUGGGACCCA [G29U G67U]: Condition not met
- GGCCGGCAUGGUCCCAGACUCCUCGCUGGCGCCGGCUGGGCAACAUUCCGAGGGGACCGUCCCCUCGGUAAUGGUGAAUGGGACCCA [C18A C75U]: Condition not met
- GGCCGGCGUGGUCCCAGCCUCCUCGCUGGAGCCGGCUGGGCAACAUUCCGAGGGGACCGUCCCCUCGGUAAUGGCGAAUGGGACCCA [A8G C30A]: Condition met
- GGCCGGCAUGGUCCCAGCCUCCUCGCUGGCGCCGGCUGGGCAACAUUCCGAGGGGACCGUCCCCACGGUAAUGGCGAAUCGGACCCA [U65A G80C]: Condition met
- GGCCGGCAUGGUCCCAGCCUCCUCGCUGGCGCCGGCUGCGCAACAUUCCCAGGGGACCGUCCCCUCGGUAAUGGCGAAUGGGACCCA [G39C G50C]: Condition met
- GGCCGACAGGGUCCCAGCCUCCUCGCUGGCGCCGGCUGGGCAACAUUCCGAGGGGACCGUCCCCUCGGUAAUGGCGAAUGGGACCCA [G6A U9G]: Condition met
